targetDesc: von Willebrand factor (VWF) (Homo sapiens, UniProt P04275 P04275:764-2813)
experimentDescription: filter; Bmax 80%; 2 mM CaCl2, 37 C
experimentalContext: tags: factor VIII free, Haematologic Technologies Inc; label: 5'-32P
valueKind: pKd
pKd here: minus log base 10 of the concentration, concentration in moles per litre.

IN: Bench note: what pKd did ACGAACUGCCCUCGAUCGACGCACAGACGU (ssRNA, mAmCmGmAmAmCmUmGfCfCfCmUmCmGmAmUmCmGmAfCrGfCmAmCmAmGmAmCmGfUidT) [DTRI-006] show?
OUT: 8.15
